This collection of values is drawn from patent US20260209260A1.

Please go through the items and note down their GI50.
- Test system: NIH-3T3 fibroblast cells (non-tumor)
- Procedure details: Cell viability assay (MTT), dark and blue light
- Assay type: cell-based, Murine
- Measurement setup: NIH-3T3, dark; read-out: GI50
- Method: Cells were grown in humidified incubators at 37° C. in 5% CO2. […] MTT reagent (3-(4,5-dimethylthiazol-2-yl)-2,5-diphenyltetrazolium bromide) was used to determine cell death as originally described by Mosmann. […] The concentration of the complexes was calculated based on the elemental composition of the complexes determined by the elemental analyses. […] All the results were calculated from data obtained in at least three independent experiments performed in triplicate. […]
One number for each entry, in µM.

Here are 2 compounds together with their reported answers.
F[P-](F)(F)(F)(F)F.O=C(NCCCn1cc[n+]2[c]1[Ir-3]13([c]4ccccc4-c4cccc[n+]41)([c]1ccccc1-c1cccc[n+]13)[n+]1ccccc1-2)[c-]1cccc1.[Fe+2].c1cc[cH-]c1 | 28.2
F[P-](F)(F)(F)(F)F.O=C(NCCCn1cc[n+]2[c]1[Ir-3]13([c]4ccccc4-c4ccc5ccccc5[n+]41)([c]1ccccc1-c1ccc4ccccc4[n+]13)[n+]1ccccc1-2)[c-]1cccc1.[Fe+2].c1cc[cH-]c1 | 11.8

Then there is this compound:
Ask: // GI50 lookup, key: `Cc1ccc2[c](c1)[Ir-3]13([c]4cc(C)ccc4-c4cccc[n+]41)([c]1n(CCCNC(=O)[c-]4cccc4)cc[n+]1-c1cccc[n+]13)[n+]1ccccc1-2.F[P-](F)(F)(F)(F)F.[Fe+2].c1cc[cH-]c1`
Result: 13.9

----------
Please go through the items and note down their λmax (nm) ε (M^−1 · cm^−1).
- Procedure details: UV/Vis absorption spectra
- Type: physicochemical
- Measurement setup: room temperature, air-saturated CH2Cl2 or CH2Cl2/MeOH (1:1), 50 μM; ε in brackets, sh = shoulder
Marks after values point to notes of the source that are not given here.

COC(=O)c1cccc2[c]1[Ir-3]13([c]4c(C(=O)OC)cccc4-c4cccc[n+]41)([c]1n(CCCNC(=O)CCCC[C@@H]4SC[C@@H]5NC(=O)N[C@@H]54)cc[n+]1-c1cccc[n+]13)[n+]1ccccc1-2.F[P-](F)(F)(F)(F)F | 373 (4260) nm (M^−1 · cm^−1)

Ask: // λmax (nm) ε (M^−1 · cm^−1) lookup, key: `COC(=O)c1cccc2[c]1[Ir-3]13([c]4c(C(=O)OC)cccc4-c4cccc[n+]41)([c]1n(CCCNC(=O)c4ccccc4SC/C=C(\C)CC/C=C(\C)CCC=C(C)C)cc[n+]1-c1cccc[n+]13)[n+]1ccccc1-2.F[P-](F)(F)(F)(F)F`
Result: 372 (4535) nm (M^−1 · cm^−1)

----------
- Procedure details: Emission lifetime measurement
- Assay type: physicochemical
Flag rule - τ1 emission lifetime less than 200 ns flags true; the remaining entries get false.

Below are worked cases with known answers.
COC(=O)c1ccc2[c](c1)[Ir-3]13([c]4cc(C(=O)OC)ccc4-c4cccc[n+]41)([c]1n(CCCNC(=O)CCCC[C@@H]4SC[C@@H]5NC(=O)N[C@@H]54)cc[n+]1-c1cccc[n+]13)[n+]1ccccc1-2.F[P-](F)(F)(F)(F)F | false
F[P-](F)(F)(F)(F)F.O=C(NCCCn1cc[n+]2[c]1[Ir-3]13([c]4ccccc4-c4c5ccccc5cc[n+]41)([c]1ccccc1-c1c4ccccc4cc[n+]13)[n+]1ccccc1-2)[c-]1cccc1.[Fe+2].c1cc[cH-]c1 | true
F[P-](F)(F)(F)(F)F.O=C(CCCC[C@@H]1SC[C@@H]2NC(=O)N[C@@H]21)NCCCn1cc[n+]2[c]1[Ir-3]13([c]4cccc5ccc6ccc[n+]1c6c45)([c]1cccc4ccc5ccc[n+]3c5c14)[n+]1ccccc1-2 | false

Ask: Strictly below 200 ns: is that where τ1 emission lifetime of `F[P-](F)(F)(F)(F)F.O=C(O)CC[C@H](NC(=O)N[C@@H](CCCCNC(=O)CCn1cc[n+]2[c]1[Ir-3]13([c]4ccccc4-c4ccc5ccccc5[n+]41)([c]1ccccc1-c1ccc4ccccc4[n+]13)[n+]1ccccc1-2)C(=O)O)C(=O)O` sits?
Result: true
